- measurement-setup: in methanol, 298.15 K
parameter: solubility (mole fraction)
Numbers only.

Please report the recorded solubility (mole fraction) for NC(=O)c1cccnc1 .
0.0876

###

- measurement-setup: in isobutanol, 298.15 K
parameter: solubility (mole fraction)

Quick check: solubility (mole fraction) of NC(=O)c1cccnc1 ?
0.0345

###

- measurement-setup: in acetone, 313.15 K
parameter: solubility (mole fraction)
Answers are plain numbers.

Reported solubility (mole fraction) for NC(=O)c1cccnc1 : what is it?
0.0342
